Recorded values, source patent US20250236673A1.

# Target: T1, recombinant human CEACAM5 (human, UniProt P06731 35-685, limits assumed)
# T1 construct: Immobilised by amine coupling on a CM5 chip
# T1 sequence (looked up): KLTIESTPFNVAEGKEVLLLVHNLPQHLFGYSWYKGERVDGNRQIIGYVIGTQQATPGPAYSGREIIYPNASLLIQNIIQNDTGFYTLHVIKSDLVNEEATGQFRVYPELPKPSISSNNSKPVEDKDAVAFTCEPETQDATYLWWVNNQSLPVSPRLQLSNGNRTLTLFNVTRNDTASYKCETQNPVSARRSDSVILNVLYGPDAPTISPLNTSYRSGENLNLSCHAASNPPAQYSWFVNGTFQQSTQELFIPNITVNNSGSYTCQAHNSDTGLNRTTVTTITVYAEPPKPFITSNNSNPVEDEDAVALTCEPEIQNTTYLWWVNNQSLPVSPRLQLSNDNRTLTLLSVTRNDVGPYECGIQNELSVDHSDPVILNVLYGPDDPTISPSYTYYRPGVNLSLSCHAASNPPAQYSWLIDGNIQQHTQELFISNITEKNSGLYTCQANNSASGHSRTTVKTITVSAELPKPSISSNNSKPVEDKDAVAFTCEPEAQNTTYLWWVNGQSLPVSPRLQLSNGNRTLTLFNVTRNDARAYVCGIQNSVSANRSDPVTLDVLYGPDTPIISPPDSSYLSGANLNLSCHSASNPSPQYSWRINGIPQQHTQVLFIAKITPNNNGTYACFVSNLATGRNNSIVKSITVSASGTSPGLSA
# Assay Details: SPR Biacore 8K+, CEACAM5 amine-coupled on CM5, ISVD analyte, 1:1 fit
Catalogue of koff values
Just the number please, in s⁻¹, no unit attached.

Below, each entry is followed by its recorded koff result.
Binder	Unit Descriptor	koff
T028501824 (VHH, also called A0315024B02(M43K, (K64K83R))) VHH: EVQLVESGGGVVQPGGSLRLSCAASGHTFSEYALGWFRQAPGKEREFVAAINWGGGWTYYADSVQGRFTISRDNAKNTLYLQMNSLRPEDTALYYCAASSDYAGGNPTGYPYWGQGTLVTVSS	s⁻¹	0.00249
T028501794 (VHH, K43A (Kabat) vs precursor T028501789; also called A0315007E07(K43A)) VHH: EVQLVESGGGVVQPGGSLRLSCAASGLTFSTYTMGWFRQAPGAEREFVAAIIWSGSNTYYADSVKGRFTISRDNAKNTVYLQMNSLRPEDTALYYCAAQHFGPIGLTTRGYHYWGQGTLVTVSS	s⁻¹	0.000865
T028501802 (VHH, K75R vs precursor T028501789; also called A0315007E07(K75R)) VHH: EVQLVESGGGVVQPGGSLRLSCAASGLTFSTYTMGWFRQAPGKEREFVAAIIWSGSNTYYADSVKGRFTISRDNARNTVYLQMNSLRPEDTALYYCAAQHFGPIGLTTRGYHYWGQGTLVTVSS	s⁻¹	0.000897
T028501822 (VHH, K43A vs precursor T028501817; also called A0315024B02(M43A, Q64K, K83R)) VHH: EVQLVESGGGVVQPGGSLRLSCAASGHTFSEYALGWFRQAPGAEREFVAAINWGGGWTYYADSVKGRFTISRDNAKNTLYLQMNSLRPEDTALYYCAASSDYAGGNPTGYPYWGQGTLVTVSS	s⁻¹	0.00198
T028501795 (VHH, K64E vs precursor T028501789; also called A0315007E07(K64E)) VHH: EVQLVESGGGVVQPGGSLRLSCAASGLTFSTYTMGWFRQAPGKEREFVAAIIWSGSNTYYADSVEGRFTISRDNAKNTVYLQMNSLRPEDTALYYCAAQHFGPIGLTTRGYHYWGQGTLVTVSS	s⁻¹	0.000914
T028501819 (VHH, K43Q vs precursor T028501817; also called A0315024B02(M43Q, Q64K, K83R)) VHH: EVQLVESGGGVVQPGGSLRLSCAASGHTFSEYALGWFRQAPGQEREFVAAINWGGGWTYYADSVKGRFTISRDNAKNTLYLQMNSLRPEDTALYYCAASSDYAGGNPTGYPYWGQGTLVTVSS	s⁻¹	0.00199

For the binder shown here, T028501826 (VHH, K64H vs precursor T028501817; also called A0315024B02(M43K, Q64H, K83R)) VHH: EVQLVESGGGVVQPGGSLRLSCAASGHTFSEYALGWFRQAPGKEREFVAAINWGGGWTYYADSVHGRFTISRDNAKNTLYLQMNSLRPEDTALYYCAASSDYAGGNPTGYPYWGQGTLVTVSS , give the reported koff.
0.00232

Entry under review: T028501790 (VHH, K43E vs precursor T028501789; also called A0315007E07(K43E)) VHH: EVQLVESGGGVVQPGGSLRLSCAASGLTFSTYTMGWFRQAPGEEREFVAAIIWSGSNTYYADSVKGRFTISRDNAKNTVYLQMNSLRPEDTALYYCAAQHFGPIGLTTRGYHYWGQGTLVTVSS . Reported koff?
0.00085

Sample T028501831 (VHH, K75H vs precursor T028501817; also called A0315024B02(M43K, Q64K, K75H, K83R)) VHH: EVQLVESGGGVVQPGGSLRLSCAASGHTFSEYALGWFRQAPGKEREFVAAINWGGGWTYYADSVKGRFTISRDNAHNTLYLQMNSLRPEDTALYYCAASSDYAGGNPTGYPYWGQGTLVTVSS — what was its koff?
0.00209

Look up koff for this binder: T028501804 (VHH, K75A vs precursor T028501789; also called A0315007E07(K75A)) VHH: EVQLVESGGGVVQPGGSLRLSCAASGLTFSTYTMGWFRQAPGKEREFVAAIIWSGSNTYYADSVKGRFTISRDNAANTVYLQMNSLRPEDTALYYCAAQHFGPIGLTTRGYHYWGQGTLVTVSS
0.000917

I am curious: what koff value has been reported for T028501825 (VHH, K64R vs precursor T028501817; also called A0315024B02(M43K, Q64R, K83R)) VHH: EVQLVESGGGVVQPGGSLRLSCAASGHTFSEYALGWFRQAPGKEREFVAAINWGGGWTYYADSVRGRFTISRDNAKNTLYLQMNSLRPEDTALYYCAASSDYAGGNPTGYPYWGQGTLVTVSS ?
0.00241

Could you share which koff value was measured for T028501796 (VHH, K64Q vs precursor T028501789; also called A0315007E07(K64Q)) VHH: EVQLVESGGGVVQPGGSLRLSCAASGLTFSTYTMGWFRQAPGKEREFVAAIIWSGSNTYYADSVQGRFTISRDNAKNTVYLQMNSLRPEDTALYYCAAQHFGPIGLTTRGYHYWGQGTLVTVSS ?
0.000929
